B1: TMEM192 (parent)
chain: LWILHLLLECYIQYHHSKIRNRGY

variants of: B1; experiment: protein stability index of a GFP-peptide fusion (GPS, HEK-293T) (PSI 1-6); higher = more stable; details: c terminus: a fixed tail appended;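 further: lentivirally expressed fusions sorted by FACS into six bins by GFP to DsRed ratio, PSI derived from sequencing read proportions per bin multiplied by bin number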
Assay Metric: protein stability index
Returns: the value as a bare number; no unit string appended.

In: Identify measured protein stability index associated with L1K
Out: 2.06

In: Identify measured protein stability index associated with S17R
Out: 3.51

In: Identify measured protein stability index associated with Y11Q
Out: 2.06

In: Identify measured protein stability index associated with R20G
Out: 2.05

In: Identify measured protein stability index associated with L7V
Out: 3.56
